Hello, the source for this data is patent US20240293558A1, in case you need it.

Measured log10 of IC50, listed per entry.
Study Target: KRAS (WT) (Homo sapiens, UniProt P01116)
Construct: Biotinylated KRAS protein amino acids 1-169 (produced at Erasca); made in house
Sequence (P01116 1-169 isoform P01116-2): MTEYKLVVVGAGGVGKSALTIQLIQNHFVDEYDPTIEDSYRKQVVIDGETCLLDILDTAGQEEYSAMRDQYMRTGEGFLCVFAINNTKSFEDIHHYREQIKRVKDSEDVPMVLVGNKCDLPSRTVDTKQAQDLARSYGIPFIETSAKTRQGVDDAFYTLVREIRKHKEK
Test Protocol: In-vitro RAS-RAF binding assay (RRB), HTRF/FRET
Format: biochemical
Experimental Conditions: Table 2, average of multiple runs of each compound; read-out: Inhibition of RAS-RAF Binding (in-vitro) KRAS (WT) IC50
Property Label: log10 of IC50 (log10 of the value in nM)

[[record]]
molecule = "C#Cc1c(F)ccc2cc(O)cc(-c3ncc4c(N5CC6CCC(C5)N6)nc(OC[C@@H]5CCCN5CCCOCCC(=O)N[C@H](C(=O)N5C[C@H](O)C[C@H]5C(=O)N[C@@H](CO)c5ccc(-c6c(F)cccc6F)cc5)C(C)(C)C)nc4c3F)c12"
study_target = "KRAS (WT) (Homo sapiens, UniProt P01116)"
property_label = "log10 of IC50"
reading = 1.48

[[record]]
molecule = "CC(C)[C@@H](C(=O)N1C[C@H](O)C[C@H]1C(=O)N[C@@H](C)c1ccc(-c2c(F)cc(F)cc2F)cc1)c1cc(OCC2(C)CCN(CCOc3nc(N4CC5CCC(C4)N5)c4cc(C(F)(F)F)c(-c5ccc(F)c6sc(N)c(C#N)c56)c(F)c4n3)CC2)no1"
study_target = "KRAS (WT) (Homo sapiens, UniProt P01116)"
property_label = "log10 of IC50"
reading = 3.28

[[record]]
molecule = "C#Cc1c(F)ccc2cc(O)cc(-c3ncc4c(N5CC6CCC(C5)N6)nc(OC[C@@H]5CCCN5CCCOCCC(=O)N[C@H](C(=O)N5C[C@H](O)C[C@H]5C(=O)N[C@@H](C)c5ccc(-c6c(F)c(F)cc(F)c6F)cc5)C(C)(C)C)nc4c3F)c12"
study_target = "KRAS (WT) (Homo sapiens, UniProt P01116)"
property_label = "log10 of IC50"
reading = 1.72

[[record]]
molecule = "C[C@H](NC(=O)[C@@H]1C[C@@H](O)CN1C(=O)[C@@H](NC(=O)CCOCCCN1CCC[C@H]1COc1nc(N2CC3CCC(C2)N3)c2cc(Cl)c(-c3ccc(F)c4sc(N)c(C#N)c34)c(F)c2n1)C(C)(C)C)c1ccc(-c2ccccc2Cl)cc1 [Example 96]"
study_target = "KRAS (WT) (Homo sapiens, UniProt P01116)"
property_label = "log10 of IC50"
reading = 2.19

[[record]]
molecule = "Cc1cc(N)nc(-c2c(Cl)cc3c(N4CC5CCC(C4)N5)nc(OC[C@@H]4CCCN4CCCCCCCN4CCC(c5cc(F)cc6c5CN(C5CCC(=O)NC5=O)C6=O)CC4)nc3c2F)c1C(F)(F)F (some centres unmarked)"
study_target = "KRAS (WT) (Homo sapiens, UniProt P01116)"
property_label = "log10 of IC50"
reading = 3.69

[[record]]
molecule = "C#Cc1c(F)ccc2cc(O)cc(-c3ncc4c(N5CC6CCC(C5)N6)nc(OC[C@@H]5CCCN5CCCOCCC(=O)N[C@H](C(=O)N5C[C@H](O)C[C@H]5C(=O)N[C@@H](C)c5ccc(-c6cc(F)c(F)c(F)c6)cc5)C(C)(C)C)nc4c3F)c12"
study_target = "KRAS (WT) (Homo sapiens, UniProt P01116)"
property_label = "log10 of IC50"
reading = 2.06

[[record]]
molecule = "Cc1ncsc1-c1ccc([C@H](C)NC(=O)[C@@H]2C[C@@H](O)CN2C(=O)[C@@H](NC(=O)CCOCCCN2CCC[C@H]2COc2nc(N3CC4CCC(C3)N4)c3cc(Cl)c(-c4ccc(F)c5sc(N)nc45)c(F)c3n2)C(C)(C)C)cc1"
study_target = "KRAS (WT) (Homo sapiens, UniProt P01116)"
property_label = "log10 of IC50"
reading = 2.33

